Cited source for all entries: ChEMBL document CHEMBL3085629

Molecular target: Proteinase-activated receptor 1 (Homo sapiens)
Sequence (whole entry): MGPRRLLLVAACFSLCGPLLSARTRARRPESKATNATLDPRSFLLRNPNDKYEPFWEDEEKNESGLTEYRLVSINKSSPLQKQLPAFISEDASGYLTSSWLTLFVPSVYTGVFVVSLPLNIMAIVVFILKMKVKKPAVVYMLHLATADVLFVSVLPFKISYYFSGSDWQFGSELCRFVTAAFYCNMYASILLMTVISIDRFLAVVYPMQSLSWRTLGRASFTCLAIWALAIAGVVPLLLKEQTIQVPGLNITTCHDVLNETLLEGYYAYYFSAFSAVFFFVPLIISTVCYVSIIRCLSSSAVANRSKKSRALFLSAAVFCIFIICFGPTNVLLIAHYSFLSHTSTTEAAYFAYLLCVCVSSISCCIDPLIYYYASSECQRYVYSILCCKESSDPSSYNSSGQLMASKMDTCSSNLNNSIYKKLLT
Experiment: Antagonist activity at PAR1 in human platelet rich plasma assessed as inhibition of SFLLRN-induced platelet aggregation at 150 uM after 5 mins by aggregometric analysis relative to control
The source made the active and inactive calls. The calls are words filed in the database; no cut-off is given here.
In this exercise, the only acceptable responses are Yes for active, No for inactive

| structure | discrete.label |
| --- | --- |
| Cc1c(C)c(S(=O)(=O)/N=C(/N)NCCC[C@H]2C(=O)N(Cc3ccccc3)C[C@H](CCc3ccccc3)N2Cc2ccccc2)c(C)c2c1OC(C)(C)C2 | Yes |

// outcome(item) with item = CC(C)(C)OC(=O)CN1[C@@H]([C@H](Cc2cn(C(=O)OC(C)(C)C)c3ccccc23)NC(=O)OC(C)(C)C)CNC(=O)[C@@H]1CCCCNC(=O)OC(C)(C)C
No

Call for entry Cc1c(C)c(S(=O)(=O)/N=C(/N)NCCC[C@H]2C(=O)N(Cc3ccccc3)C[C@H]([C@H](Cc3cn(C(=O)OC(C)(C)C)c4ccccc34)NC(=O)OC(C)(C)C)N2CC(=O)OC(C)(C)C)c(C)c2c1OC(C)(C)C2 :
Yes

Identify the outcome logged in this assay for the compound shown: CC(C)(C)OC(=O)NCCCC[C@@H]1N[C@@H]([C@H](Cc2cn(C(=O)OC(C)(C)C)c3ccccc23)NC(=O)OC(C)(C)C)CNC1=O
No

Outcome? Cc1c(C)c(S(=O)(=O)/N=C(\N)NCCC[C@H]2C(=O)N(Cc3ccccc3)C[C@H]([C@H](Cc3ccccc3)NC(=O)OC(C)(C)C)N2Cc2ccccc2)c(C)c2c1OC(C)(C)C2
Yes

Look up the recorded call for Cc1c(C)c(S(=O)(=O)/N=C(\N)NCCC[C@H]2C(=O)N(Cc3ccccc3)C[C@@H]([C@H](Cc3ccccc3)NC(=O)OC(C)(C)C)N2Cc2ccccc2)c(C)c2c1OC(C)(C)C2 in this test.
Yes

State the result this test recorded for Cc1c(C)c(S(=O)(=O)/N=C(/N)NCCC[C@H]2C(=O)N(Cc3ccccc3)C[C@@H](CCc3cn(C(=O)OC(C)(C)C)c4ccccc34)N2Cc2ccccc2)c(C)c2c1OC(C)(C)C2 .
Yes

Recorded call for CC(C)(C)OC(=O)NCCCC[C@@H]1N[C@H]([C@H](Cc2cn(C(=O)OC(C)(C)C)c3ccccc23)NC(=O)OC(C)(C)C)CNC1=O ?
No

I would be grateful if you could indicate the recorded call for Cc1c(C)c(S(=O)(=O)/N=C(\N)NCCC[C@H]2C(=O)N(Cc3ccccc3)C[C@@H]([C@H](Cc3c[nH]c4ccccc34)NC(=O)NCc3ccccc3)N2Cc2ccccc2)c(C)c2c1OC(C)(C)C2 .
Yes

Please indicate how the test categorized CC(C)(C)OC(=O)NCCCC[C@H]1C(=O)NC[C@H]([C@H](Cc2cn(C(=O)OC(C)(C)C)c3ccccc23)NC(=O)OC(C)(C)C)N1Cc1ccccc1 .
No

Record lookup: outcome of this test for CC(C)(C)OC(=O)NCCCC[C@H]1C(=O)N(Cc2ccccc2)C[C@@H]([C@H](Cc2cn(C(=O)OC(C)(C)C)c3ccccc23)NC(=O)OC(C)(C)C)N1Cc1ccccc1 ?
No

====

Biological target: Proteinase-activated receptor 1 (Homo sapiens) (UniProt P25116)
Sequence (whole entry): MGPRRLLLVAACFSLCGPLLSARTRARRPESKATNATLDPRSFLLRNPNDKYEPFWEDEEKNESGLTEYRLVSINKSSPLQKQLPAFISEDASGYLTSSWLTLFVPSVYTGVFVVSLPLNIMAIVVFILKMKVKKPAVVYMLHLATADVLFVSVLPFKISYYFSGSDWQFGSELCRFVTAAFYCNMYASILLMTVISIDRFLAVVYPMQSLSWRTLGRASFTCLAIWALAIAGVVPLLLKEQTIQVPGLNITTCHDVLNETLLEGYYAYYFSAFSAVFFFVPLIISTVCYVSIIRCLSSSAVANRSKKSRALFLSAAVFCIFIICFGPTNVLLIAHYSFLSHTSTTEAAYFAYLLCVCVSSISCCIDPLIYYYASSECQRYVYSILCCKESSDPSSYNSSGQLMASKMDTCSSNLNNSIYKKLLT
Experiment: Antagonist activity at PAR1 in human platelet rich plasma assessed as inhibition of SFLLRN-induced platelet aggregation at 150 uM after 5 mins by aggregometric analysis relative to control
Calls of active or inactive are those of the source. No cut-off for these calls is given here.
Output constraint: value belongs to 1 (active), -1 (inactive)

| structure | system | discrete.label |
| --- | --- | --- |
| CC(C)(C)OC(=O)CN1[C@@H](CCCCNC(=O)OC(C)(C)C)C(=O)NC[C@H]1[C@H](Cc1cn(C(=O)OC(C)(C)C)c2ccccc12)NC(=O)OC(C)(C)C | Proteinase-activated receptor 1 (Homo sapiens) (UniProt P25116) | -1 |
| Cc1c(C)c(S(=O)(=O)/N=C(/N)NCCC[C@H]2C(=O)N(Cc3ccccc3)C[C@H](CCc3cn(C(=O)OC(C)(C)C)c4ccccc34)N2Cc2ccccc2)c(C)c2c1OC(C)(C)C2 | Proteinase-activated receptor 1 (Homo sapiens) (UniProt P25116) | 1 |
| Cc1c(C)c(S(=O)(=O)/N=C(\N)NCCC[C@H]2C(=O)N(Cc3ccccc3)C[C@@H]([C@H](Cc3ccccc3)NC(=O)OC(C)(C)C)N2CC(=O)OC(C)(C)C)c(C)c2c1OC(C)(C)C2 | Proteinase-activated receptor 1 (Homo sapiens) (UniProt P25116) | 1 |

Tell me the assay call for Cc1c(C)c(S(=O)(=O)/N=C(/N)NCCC[C@H]2C(=O)N(Cc3ccccc3)C[C@@H](CCc3ccccc3)N2Cc2ccccc2)c(C)c2c1OC(C)(C)C2 please.
1

Test call for this molecule, please: CC(C)(C)OC(=O)CN1[C@@H]([C@H](Cc2cn(C(=O)OC(C)(C)C)c3ccccc23)NC(=O)OC(C)(C)C)CN(Cc2ccccc2)C(=O)[C@@H]1CCCCNC(=O)OC(C)(C)C
-1

====

Biological target: Proteinase-activated receptor 1 (Homo sapiens)
Sequence (whole entry): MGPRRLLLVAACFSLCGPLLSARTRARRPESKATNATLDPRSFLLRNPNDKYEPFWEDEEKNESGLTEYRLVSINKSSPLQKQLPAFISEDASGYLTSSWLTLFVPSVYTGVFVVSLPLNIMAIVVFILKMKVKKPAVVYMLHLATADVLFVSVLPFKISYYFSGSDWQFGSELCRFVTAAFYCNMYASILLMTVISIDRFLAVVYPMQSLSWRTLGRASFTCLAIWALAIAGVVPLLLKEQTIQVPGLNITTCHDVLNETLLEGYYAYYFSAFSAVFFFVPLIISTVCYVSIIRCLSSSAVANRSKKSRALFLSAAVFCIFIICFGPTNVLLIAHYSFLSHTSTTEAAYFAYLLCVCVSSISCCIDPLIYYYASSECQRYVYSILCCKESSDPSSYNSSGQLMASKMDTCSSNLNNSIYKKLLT
Test: Antagonist activity at PAR1 in human platelet rich plasma assessed as inhibition of SFLLRN-induced platelet aggregation at 150 uM after 5 mins by aggregometric analysis relative to control
Calls of active or inactive are those of the source. The rule behind the calls is not given here.
Answer with one of the outcomes Y = active, N = inactive

Some solved cases for reference:
| structure | system | discrete.label |
| --- | --- | --- |
| Cc1c(C)c(S(=O)(=O)/N=C(/N)NCCC[C@H]2C(=O)N(Cc3ccccc3)C[C@H]([C@H](Cc3cn(C(=O)OC(C)(C)C)c4ccccc34)NC(=O)OC(C)(C)C)N2Cc2ccccc2)c(C)c2c1OC(C)(C)C2 | Proteinase-activated receptor 1 (Homo sapiens) | Y |
| Cc1c(C)c(S(=O)(=O)/N=C(\N)NCCC[C@H]2C(=O)N(Cc3ccccc3)C[C@H]([C@H](Cc3c[nH]c4ccccc34)NC(=O)NCc3ccccc3)N2Cc2ccccc2)c(C)c2c1OC(C)(C)C2 | Proteinase-activated receptor 1 (Homo sapiens) | Y |
| CC(C)(C)OC(=O)NCCCC[C@H]1C(=O)NC[C@@H]([C@H](Cc2cn(C(=O)OC(C)(C)C)c3ccccc23)NC(=O)OC(C)(C)C)N1Cc1ccccc1 | Proteinase-activated receptor 1 (Homo sapiens) | N |

Shifting focus to the compound that follows.
Which outcome was assigned to Cc1c(C)c(S(=O)(=O)/N=C(/N)NCCC[C@H]2C(=O)N(Cc3ccccc3)C[C@@H]([C@H](Cc3cn(C(=O)OC(C)(C)C)c4ccccc34)NC(=O)OC(C)(C)C)N2CC(=O)OC(C)(C)C)c(C)c2c1OC(C)(C)C2 in this test?
Y
